Molecular target: PotF_Dist (Escherichia coli, UniProt P31133, A182D/L348Q/S87Y)
Construct: without the N-terminal signal peptide; made in house; host or cells: E. coli BL21 (DE3)
Sequence (P31133 27-370 S87Y/A182D/L348Q): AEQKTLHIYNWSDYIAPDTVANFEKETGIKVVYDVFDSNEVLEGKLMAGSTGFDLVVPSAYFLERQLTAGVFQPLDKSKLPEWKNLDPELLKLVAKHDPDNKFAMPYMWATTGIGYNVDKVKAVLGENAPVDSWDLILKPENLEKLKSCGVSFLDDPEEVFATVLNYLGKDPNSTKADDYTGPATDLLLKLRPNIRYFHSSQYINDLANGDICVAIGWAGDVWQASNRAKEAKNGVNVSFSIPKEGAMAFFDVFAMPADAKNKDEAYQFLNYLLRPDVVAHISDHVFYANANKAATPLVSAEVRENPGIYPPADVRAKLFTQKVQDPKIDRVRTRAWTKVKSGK
Experiment: ITC, PotF_Dist (S87Y, A182D, L348Q)
Type: binding
Settings: ITC, 293 K, 50 mM Tris pH 8, 300 mM NaCl, biological triplicates
Attribute measured: Kd (µM)
The reply should contain only the number, in µM.

For reference, reported Kd for NCCCCNCCCN [SPD, spermidine] stands at 88.2

---

Reported Kd is given for each of the following compounds.
Target: PotF_Abox-S87Y (Escherichia coli, UniProt P31133, F276W/S87Y)
Construct: without the N-terminal signal peptide
Sequence (P31133 27-370 S87Y/F276W): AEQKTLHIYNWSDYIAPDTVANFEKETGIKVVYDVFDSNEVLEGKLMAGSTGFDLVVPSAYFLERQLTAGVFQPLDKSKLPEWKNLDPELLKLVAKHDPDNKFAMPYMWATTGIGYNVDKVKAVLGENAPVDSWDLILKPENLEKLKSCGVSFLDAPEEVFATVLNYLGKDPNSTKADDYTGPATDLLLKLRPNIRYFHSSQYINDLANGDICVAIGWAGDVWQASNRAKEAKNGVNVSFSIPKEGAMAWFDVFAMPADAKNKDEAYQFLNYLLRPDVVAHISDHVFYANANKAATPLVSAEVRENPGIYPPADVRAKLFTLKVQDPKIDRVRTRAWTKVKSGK
Test: ITC, PotF_Abox-S87Y (F276W, S87Y)
Details: ITC, 293 K, 50 mM Tris pH 8, 300 mM NaCl, biological triplicates
The reply should contain only the number, in µM.

INSERT INTO measurements (compound, attribute_measured, unit_of_measurement, value_reported) VALUES
  ('NCCCCNCCCN [SPD, spermidine]', 'Kd', 'µM', 20);

For the next question, use this compound.
For reference, reported Kd for NCCCCN [PUT, putrescine] stands at 14.9
